Reference source for all entries: patent US6350731

- system name: Rb 68
- measurement protocol: competitive ELISA on antiserum Rb 68; coated antigen not given
pIC50: −log10 of the molar value. Where no end group is shown, it is not given here.
readout: pIC50

binder="Ac-RKIEIVRKKC [GP8]" readout=pIC50 result="> 8.70"
